Assay: soluble on expression in E. coli; label from the status in PepcDB or PDB records
Measurement label: soluble on expression in E. coli

MHQVYVDIIVDAIIEQYQTEENFYSAYQIQAADWQAWKEGQFGLDNEVMQKIKNLFTDYEWMLTQKILRQTILFPEKRNLAVSEYKRLKTTIAKKWLQSDLGVVELIPNNKQEQEIAAGYIDLKVTLAYGEWGFDDIITFRLPATIQRQLEGSKVELLDWVNENLMDTYVGE; not soluble
MSLGVNFQPVAFTGRIDQSQREKKRITIPDVMKLVEEQTGGEIPCNAWYPVSFVVPISRFLSAMRNIPIPELTAHPHCGAGTYVFYEEGHFIPITNFFDVESFIELLKEITPEINGRVSRVLSLAKVIKQVPKFIDEKKGPKSVNTTRMILDLLKKGDMENTSRFHRNTLFLGTMHFQDLYNIDLERVKKCGVHYATPDGRIIPFCTYNEGHHHHHH; not soluble
VLPHARKVARETGIPEHFMIAQAALETGWGRHQIRRADNQPSFNLFGIKASGNWRGGVVETVTTEYVDGKPQKLREKFRTYDSYEDAFRDYAKLLQNNPRYAAVLKSRSATAFAWGLQQAGYATDPSYAEKLLKIINSDALSI; not soluble

====

Test: soluble on expression in E. coli; label from the status in PepcDB or PDB records
Measurement label: soluble on expression in E. coli

MIKHLVAPLVFTSLILTGCQSPQGKFTPEQVAAMQSYGFTESAGDWSLGLSDAILFAKNDYKLLPESQQQIQTMAAKLASTGLTHARMDGHTDNYGEDSYNEGLSLKRANVVADAWAMGGQIPRSNLTTQGLGKKYPIASNKTAQGRAENRRVAVVITTP; not soluble
MSLRTSYKIYCTYKNIHAWYDAIKCGIDAAVKELAEKGVTVDYEWYGPAQPDAVDQVNSIETAIGQGWDLIAVDVNQPELTGEAINNAVAKGIPVAVFGTSDVPNCDRAFFVGNTDPYGDGCALAKAVCEKMGGKGQIAILAGTIGALAHEERLRGFKDTIAKYPDIEIVDEQRDNDEVEKAISITESWLQAYPNLGGILCNNMSNPVGACQAVADAGKSGKIVIGGMDHDLRALNALKDGTLYVAQVQNCYDMGYKLIYNAIKTIDGEKVEESTAVGSTSVYAQDADKFINMLYGEANEGHHHHHH; soluble
MGHHHHHHSHLRHKEPGSGSGGGVYWVDSQQKRYVPVKGDHVIGIVTAKSGDIFKVDVGGSEPASLSYLSFEGATKRNRPNVQAISSRL; not soluble
GMNQSIIFTEQLTWDVQLSAIHFTAQQQGMVIDCYIGQKVLEHLAAEKINNSEQALSLFEQFRFDIEEQAEKLIEQEAFDVQGHIQVERVD; soluble

--- query ---
Request: Requested read-out: soluble on expression in E. coli. Entry: "MNNKLTPVSPGEMLAEEFLIPLGMSNYRLAKEIGVSAQRIGEIVTGKRAITVDTDLRLCRFFGLSDGWWLRLQVDYDIEMARGALEETLAKIRPWANTQEHGTPA"
Result: not soluble

====

Experiment: soluble on expression in E. coli; label from the status in PepcDB or PDB records
Measurement label: soluble on expression in E. coli

Answered cases to consult:
CEVDALKGTNESLERQMREMEENFAVEAANYQDTIGRLQDEIQNMKEEMARHLREYQDLLNVKMALDIEIATYRKLLEGEESRI; soluble
MGSDKIHHHHHHMKRRILFIHNNLGGGGAEGALIEVLNHLDYNRYDVTLFLLYRTGDFIDRVPPQVHFKHEQFGRFFPGYKGKIAIRCGLRNMLLRCCAKRVFANEKYDTIVSFMESAPAKFHSYILDKGKRNITWVHCDLLNNHYTTGFFLTLKQEQKFYSRMDDVIFVSEDAKKNFSKLFGIDKGRVIYNIIDQRAICKRSKAVSSMPRHRTFTFVNVGSLKEIKRQDRIIETAALLKARGYDADFWLIGKGIWEERLKAQATALNVSDSVHFLGFQSNPYPYVAAADVFLMTSDSEGFPLVVAEAMCLGKAVISTRITGPMEMLGNGRYGILTGFSPEEIANSAISLIEDPKLLSSYQHLAYERSISYFDVNGVMTQIHDVIGN; not soluble
MGSDKIHHHHHHMQIYASLLLILKLERKLCIFSGKVMELYEMYYFAFNKSSEPMLFADPNTGRIFDVNQAFLALLGYAKDEVMVKTTFDLGLLPEEDSQPRQPLWVKTKNGSLKSGMVSATDLVHKEKMMRLMVFQEQSENGNFTLEEMLTQTISLISKISEFRDPYTSGHQKRTQKLACAIASEMKLSGEAIHHVSMAAAIHDVGKIYISSDILNKPGKLTQLEYQMLQTHVEVGYEIIKDFQLPWQIPEIISQHHERLDGSGYPKGLTASQIFLESKILAVADVVDAMNSHRPYRPALGIEAALEEICNYKGEKYDSEVVEHCVRLFKEKQAMPNRFKI; not soluble
MTDIPHDHPRYESLLAREKVAAGVKMGITSIQGLIAQGRGESFDYLIGERSTESALYAERAAVAALLLAENPVISVNGNVAALAPDKVVTLADITGARIEVNLFHRTDTRVHLIIEQLKASGAAEVLGKNPDASLELSHDRRLVSSKGIYTADVVLVPLEDGDRCEKLVEMGKTVITIDLNPLSRTSKTATISIVDNLTRALGNMAKFAQEMKKERKEELVKLITTYDNKRTLSEAISEIQEHLKTMAAETGLEHHHHHH; soluble
GMNPENWLLLRRVVRFGDTDAAGVMHFHQLFRWCHESWEESLESYGLNPADIFPGSRKSEVTPEVALPIIHCQADFRRPIHTGDALAMELRPERLNPNSFQVHFEFRCEEQIAAHALIRHLAINAQTRHRCALPEGIDRWLEASGVGKIGSI; soluble

Request: Requested read-out: soluble on expression in E. coli. Entry: "SEPGETIVEAMQREVKEEAGLLCEPVTLLSVEERGASWIRFVFLARPTGGVLKTSKDADSESLQAGWYPRVSLPTPLRAHDVLHLVELGAKFCQQAMHPLILPQELPCSVVCQRLVTTFTTVQSVWVLVGTVGTPHLPITACGFTPMEQRGGIKVAILRLLQECLTLHSLAVETKGLLGLQHLGRDHVDGVCLNVLVTVAFRNPGIQDEPPKIRGENYFWWKVLEEDLQKLLLYRLQESSVIPLSR"
Result: soluble
